Measured %Inh, listed per entry.
System: CSNK2A1;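 note: KINOMEscan kinase panel screen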
Settings: concentration: 1 μM, replicates: in singlicate; n = 1
assay-readout: %Inh (%)

| compound | recorded-measurement |
| --- | --- |
| Cc1cccc(-c2nc(Nc3ccc4[nH]ncc4c3)c3ccccc3n2)n1 [GW857175] | 94 |
| CC(C)(C)c1ccc(C(=O)Nc2cn3cc(Cl)ccc3n2)cc1 | 0 |
| Cl.c1ccc(-c2n[nH]cc2-c2ccnc(-c3ccc(CN4CCOCC4)cc3)c2)nc1 [GW776245] | 0 |
| Fc1cccc(COc2nnc(-c3ccc4c(c3)CCO4)o2)c1 | 42 |
| Fc1cc(Cl)ccc1Nc1ccnc2cc(-c3ccc(CN4CCCCC4)o3)ccc12 [GW560116] | 0 |
| O=C(Nc1ccc2c(c1)OCO2)NC1CCN(c2ccnc(Nc3ccc(F)cc3)n2)C1 (centres unmarked) [GSK1379724] | 0 |
| Cl.O=C(Nc1cccc(-c2nn3ncccc3c2-c2ccnc(Nc3cccnc3)n2)c1)c1c(F)cccc1F [GSK312879] | 1 |
| CS(=O)(=O)c1ccc(-c2c(-c3ncn[nH]3)sc(N3CCOCC3)c2C#N)cc1 | 0 |
| Cc1cc(N2Cc3ccccc3C2)nc(Nc2ccc(S(=O)(=O)N3CCOCC3)cc2)n1.Cl [GSK1669917] | 2 |
| Cc1ccc(NC(=O)Nc2cccc(Cl)c2)cc1-c1ccc(C(=O)Nc2ccncc2)cc1 [GSK1398468] | 0 |
| Cn1cncc1-c1ccc2ncnc(Nc3ccc(OCc4ccccc4)cc3)c2c1 [GW320571] | 26 |
| Cc1ccc(-c2cc(-c3c[nH]nc3-c3ccccn3)ccn2)cc1 [GW684088] | 0 |
| Cl.Oc1ccc(-c2nc(-c3ccccc3)[nH]c2-c2ccncc2)cc1 [SB-428218] | 0 |
| Cn1ccc2ncnc(Oc3ccc(NC(=O)Nc4ccccc4)cc3)c21 | 14 |
